Tested on: rabbit vWF A1 domain (SEQ ID NO 6)
Sequence (as listed by the source): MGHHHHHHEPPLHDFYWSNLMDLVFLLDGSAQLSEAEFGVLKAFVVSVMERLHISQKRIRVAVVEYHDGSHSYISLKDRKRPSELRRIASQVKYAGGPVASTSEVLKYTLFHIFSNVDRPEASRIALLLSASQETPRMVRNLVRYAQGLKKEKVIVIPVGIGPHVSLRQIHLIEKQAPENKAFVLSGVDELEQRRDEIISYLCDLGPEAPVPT
assay-notes: 3-point dot blot screen, rabbit vWF A1 domain
Type: binding
condition-summary: rRdY aptamers; 100 nM rabbit vWF A1 domain; ratio of fraction bound with target to without
Oligonucleotides are written 5' to 3', each unit as a sugar letter and its base; * is a phosphorothioate linkage, no mark a phosphodiester; rarer units and linkages stand in square brackets, end groups in braces. Plain capitals give the bases only. d = 2'-deoxy (DNA); r = 2'-OH (RNA)
So I've got a bunch of molecules here, and I need their Screen- Rabbit/No Protein values.
Numbers only.

molecule	value-type	val
AMX205.A7: rRdY aptamer clone (nucleic acid) rGrGrArGdCrGdCrAdCdTdCrArGdCdCrAdCdTdCrArArGrGrGrGrGdTdCrGdCrGdTrGrGrGrGrAdCrGrArArGrGrGdTdTrGdCrArGdTrGdTrGdTdCrGdTdTdTdCrGrAdCdCdTdCdTdCdTrGdCdTrArGdC	Screen- Rabbit/No Protein	1.37

Now, please, on to the next molecule.
Input: What Screen- Rabbit/No Protein value was documented for this molecule, AMX205.H8: rRdY aptamer clone (nucleic acid) rGrGrArGdCrGdCrAdCdTdCrArGdCdCrAdCrArArAdCrGrGrAdCrGrGdTrGrAdTrGrGrAdTdTrArAdCrGdCrGrGrGdTdTdTrAdTrGrGdCrArArGrGdTdTdTdCrGrAdCdCdTdCdTdCdTrGdCdTrArGdC ?
Output: 2.84

Source listed as patent US7998940B2.
